Assay: Binding affinity against neurotensin receptor.

| MOLECULAR_STRING | Ki / nM |
| --- | --- |
| CC(C)C[C@H](NC(=O)CC[C@@H]1NC(=O)[C@H](Cc2c[nH]c3ccccc23)NC(=O)[C@@H]2CCCN2C(=O)[C@H](CCCCN)NC(=O)[C@@H](CCCN=C(N)N)N(C(=O)[C@@H]2CCCN2C(=O)[C@H](CCCCN)NC(=O)[C@H](CC(N)=O)NC(=O)[C@H](CCC(=O)O)NC(=O)[C@H](Cc2ccc(O)cc2)NC(=O)[C@H](CC(C)C)NC(=O)[C@@H](N)CCC(=O)O)C1=O)C(=O)O | 16 |
